# assay-method-text: Ratio of C20 obtained in the absence or presence of [C20 (1 mg of yohimbine.) / C20 (control)]
# Format: functional
Ratio vs 3: less than gives class 1; not less than gives class 0.

[
  {
    "molecule": "COc1ccc(OC)c2c1CCC1(CN=CN1)C2 (stereo not drawn)",
    "class-label": "class 1"
  },
  {
    "molecule": "CCc1ccc2c(c1)CC1(CC2)CN=CN1 (stereo not drawn)",
    "class-label": "class 1"
  },
  {
    "molecule": "CN1C=NC2(CCc3ccccc3C2)C1 (stereo not drawn)",
    "class-label": "class 1"
  },
  {
    "molecule": "COc1cc2c(c(OC)c1)CCC1(CN=CN1)C2 (stereo not drawn)",
    "class-label": "class 1"
  },
  {
    "molecule": "Cc1cc2c(cc1C)CC1(CC2)CN=CN1 (stereo not drawn)",
    "class-label": "class 1"
  },
  {
    "molecule": "COc1ccc2c(c1OC)CCC1(CN=CN1)C2 (stereo not drawn)",
    "class-label": "class 1"
  },
  {
    "molecule": "CCOc1ccc(OCC)c2c1CCC1(CN=CN1)C2 (stereo not drawn)",
    "class-label": "class 0"
  },
  {
    "molecule": "Clc1cccc2c1CC1(CC2)CN=CN1 (stereo not drawn)",
    "class-label": "class 0"
  },
  {
    "molecule": "FC(F)(F)c1ccc(Cl)c(NC2=NCCN2)c1",
    "class-label": "class 1"
  },
  {
    "molecule": "Clc1cc2c(cc1Cl)CC1(CC2)CN=CN1 (stereo not drawn)",
    "class-label": "class 0"
  },
  {
    "molecule": "COc1ccc(SC)c2c1C[C@@H]1[C@@H](C2)OCCN1C",
    "class-label": "class 1"
  },
  {
    "molecule": "Cc1ccc2c(c1)CCC1(CN=CN1)C2 (stereo not drawn)",
    "class-label": "class 0"
  },
  {
    "molecule": "CC(C)Oc1ccc2c(c1)CCC1(CN=CN1)C2 (stereo not drawn)",
    "class-label": "class 0"
  }
]

###

# system: Adrenergic receptor alpha (Rattus norvegicus) (UniProt P15823+P23944+P43140+P22086+P19328+P22909)
# assay-method-text: Alpha adrenergic activity was evaluated as maximal pressure response caused by agonist, expressed in mmHg (the maximum obtained with phenylephrine is 150 mmHg).
# Assay type: functional

[
  {
    "molecule": "NC1=NC2(CCc3ccccc3C2)CO1 (stereo not drawn)",
    "Max (mmHg)": 95
  },
  {
    "molecule": "Clc1cc(Cl)c2c(c1)CCC1(CN=CN1)C2 (stereo not drawn)",
    "Max (mmHg)": 137
  },
  {
    "molecule": "CC1=NCC2(CCc3ccccc3C2)N1C (stereo not drawn)",
    "Max (mmHg)": 73
  },
  {
    "molecule": "Cc1ccc2c(c1)CC1(CC2)CN=CN1 (stereo not drawn)",
    "Max (mmHg)": 111
  },
  {
    "molecule": "C1=NCC2(CCc3ccccc3C2)N1 (stereo not drawn)",
    "Max (mmHg)": 120
  },
  {
    "molecule": "Clc1cccc2c1CCC1(CN=CN1)C2 (stereo not drawn)",
    "Max (mmHg)": 125
  },
  {
    "molecule": "Oc1cccc2c1CC1(CC2)CN=CN1 (stereo not drawn)",
    "Max (mmHg)": 119
  },
  {
    "molecule": "COc1cc2c(cc1O)CCC1(CN=CN1)C2 (stereo not drawn)",
    "Max (mmHg)": 134
  },
  {
    "molecule": "CCOc1ccc(OCC)c2c1CCC1(CN=CN1)C2 (stereo not drawn)",
    "Max (mmHg)": 157
  },
  {
    "molecule": "NC1=NC2(CCc3cccc(Cl)c3C2)CO1 (stereo not drawn)",
    "Max (mmHg)": 140
  },
  {
    "molecule": "FC(F)(F)c1ccc2c(c1)CC1(CC2)CN=CN1 (stereo not drawn)",
    "Max (mmHg)": 55
  },
  {
    "molecule": "C1=NC2(CCc3ccccc3C2)CO1 (stereo not drawn)",
    "Max (mmHg)": 38
  },
  {
    "molecule": "COc1cccc2c1CC1(CC2)CN=CN1 (stereo not drawn)",
    "Max (mmHg)": 139
  },
  {
    "molecule": "COc1ccc(SC)c2c1CC1(CC2)CN=CN1 (stereo not drawn)",
    "Max (mmHg)": 136
  },
  {
    "molecule": "COc1ccc2c(c1)CC1(CC2)CN=CN1 (stereo not drawn)",
    "Max (mmHg)": 106
  },
  {
    "molecule": "Cc1cc2c(cc1C)CC1(CC2)CN=CN1 (stereo not drawn)",
    "Max (mmHg)": 72
  },
  {
    "molecule": "Cc1cc(C)c2c(c1)CC1(CC2)CN=CN1 (stereo not drawn)",
    "Max (mmHg)": 91
  },
  {
    "molecule": "CCc1ccc2c(c1)CC1(CC2)CN=CN1 (stereo not drawn)",
    "Max (mmHg)": 61
  },
  {
    "molecule": "C1=NCC2(CCc3cc4c(cc3C2)CCC4)N1 (stereo not drawn)",
    "Max (mmHg)": 68
  },
  {
    "molecule": "Clc1ccc2c(c1)CCC1(CN=CN1)C2 (stereo not drawn)",
    "Max (mmHg)": 120
  },
  {
    "molecule": "CC1=NC2(CCc3ccccc3C2)CN1 (stereo not drawn)",
    "Max (mmHg)": 113
  },
  {
    "molecule": "CN1C=NC2(CCc3ccccc3C2)C1 (stereo not drawn)",
    "Max (mmHg)": 77
  },
  {
    "molecule": "Clc1cc(Cl)c2c(c1)CC1(CC2)CN=CN1 (stereo not drawn)",
    "Max (mmHg)": 91
  },
  {
    "molecule": "CCOc1ccc(OC)c2c1CCC1(CN=CN1)C2 (stereo not drawn)",
    "Max (mmHg)": 147
  },
  {
    "molecule": "COc1ccc2c(c1OC)CCC1(CN=CN1)C2 (stereo not drawn)",
    "Max (mmHg)": 107
  },
  {
    "molecule": "Fc1ccc2c(c1)CC1(CC2)CN=CN1 (stereo not drawn)",
    "Max (mmHg)": 108
  },
  {
    "molecule": "Fc1cc(F)c2c(c1)CC1(CC2)CN=CN1 (stereo not drawn)",
    "Max (mmHg)": 84
  },
  {
    "molecule": "Cc1ccc2c(c1)CCC1(CN=CN1)C2 (stereo not drawn)",
    "Max (mmHg)": 114
  },
  {
    "molecule": "Clc1cccc2c1CC1(CC2)CN=CN1 (stereo not drawn)",
    "Max (mmHg)": 133
  },
  {
    "molecule": "NC1=NC2(CCc3ccccc3C2)CN1 (stereo not drawn)",
    "Max (mmHg)": 53
  },
  {
    "molecule": "COc1cc2c(cc1OC)CC1(CC2)CN=CN1 (stereo not drawn)",
    "Max (mmHg)": 129
  },
  {
    "molecule": "COc1cc(C)cc2c1CCC1(CN=CN1)C2 (stereo not drawn)",
    "Max (mmHg)": 136
  },
  {
    "molecule": "CC(C)c1ccc2c(c1)CC1(CC2)CN=CN1 (stereo not drawn)",
    "Max (mmHg)": 66
  }
]

###

# system: Alpha-2A adrenergic receptor (Homo sapiens)
# Sequence (P08913 whole entry): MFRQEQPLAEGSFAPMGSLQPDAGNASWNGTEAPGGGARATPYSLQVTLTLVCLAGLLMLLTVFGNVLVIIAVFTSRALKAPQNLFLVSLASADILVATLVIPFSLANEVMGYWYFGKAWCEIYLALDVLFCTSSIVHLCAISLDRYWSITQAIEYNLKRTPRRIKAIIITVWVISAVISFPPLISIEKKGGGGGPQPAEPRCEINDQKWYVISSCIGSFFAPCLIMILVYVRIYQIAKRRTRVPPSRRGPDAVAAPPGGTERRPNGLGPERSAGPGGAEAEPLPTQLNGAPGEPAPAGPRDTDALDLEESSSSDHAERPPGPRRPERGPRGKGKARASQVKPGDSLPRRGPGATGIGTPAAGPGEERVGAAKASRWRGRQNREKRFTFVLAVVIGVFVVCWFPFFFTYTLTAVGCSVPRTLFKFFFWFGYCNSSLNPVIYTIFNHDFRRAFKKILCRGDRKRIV
# assay-method-text: Binding affinity towards Alpha-2A adrenergic receptor in human platelets using [3H]RX-821002 as radioligand
pKi: −log10 of the molar value.
measured-property: pKi

[
  {
    "compound": "Cc1ccc2c(c1)CC1(CC2)CN=CN1 (stereo not given)",
    "measured-property": "pKi",
    "observed-value": 8.15
  },
  {
    "compound": "Clc1cc(Cl)c2c(c1)CC1(CC2)CN=CN1 (stereo not given)",
    "measured-property": "pKi",
    "observed-value": 8.52
  },
  {
    "compound": "C1=NCC2(CCc3ccccc3C2)N1 (stereo not given)",
    "measured-property": "pKi",
    "observed-value": 7.47
  },
  {
    "compound": "COc1ccc2c(c1)CCC1(CNC=N1)C2 (stereo not given)",
    "measured-property": "pKi",
    "observed-value": 7.06
  },
  {
    "compound": "COc1cccc2c1CCC1(CNC=N1)C2 (stereo not given)",
    "measured-property": "pKi",
    "observed-value": 7.92
  },
  {
    "compound": "Fc1cccc2c1CC1(CC2)CN=CN1 (stereo not given)",
    "measured-property": "pKi",
    "observed-value": 7.92
  },
  {
    "compound": "FC(F)(F)c1ccc(Cl)c(NC2=NCCN2)c1",
    "measured-property": "pKi",
    "observed-value": 5.81
  },
  {
    "compound": "COc1ccc2c(c1)CC1(CC2)CNC=N1 (stereo not given)",
    "measured-property": "pKi",
    "observed-value": 7.74
  },
  {
    "compound": "NC1=NC2(CCc3cccc(Cl)c3C2)CO1 (stereo not given)",
    "measured-property": "pKi",
    "observed-value": 8.80
  },
  {
    "compound": "COc1cccc2c1CC1(CC2)CNC=N1 (stereo not given)",
    "measured-property": "pKi",
    "observed-value": 7.29
  }
]
